- tested system: h17β-HSD2 (Homo sapiens, UniProt P37059)
- Sequence (P37059 whole entry): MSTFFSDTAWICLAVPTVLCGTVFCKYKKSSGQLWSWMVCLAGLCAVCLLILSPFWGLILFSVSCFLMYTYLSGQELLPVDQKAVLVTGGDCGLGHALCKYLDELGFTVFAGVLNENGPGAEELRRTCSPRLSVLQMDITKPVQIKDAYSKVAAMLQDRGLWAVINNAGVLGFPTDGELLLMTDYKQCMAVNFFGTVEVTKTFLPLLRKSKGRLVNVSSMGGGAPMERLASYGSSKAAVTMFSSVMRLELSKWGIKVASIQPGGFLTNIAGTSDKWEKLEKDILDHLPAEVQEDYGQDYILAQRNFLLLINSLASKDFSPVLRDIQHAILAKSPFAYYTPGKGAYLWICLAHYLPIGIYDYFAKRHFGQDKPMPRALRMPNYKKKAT
- assay remarks: Inhibition of h17β-HSD2 in cell-free assay
- Format: biochemical
- Set-up: from tissue; host or cells: human placenta, microsomal fraction
- protocol conditions: read-out: % inh. at 1 μM h17β-HSD2
Entries and their inhibition at 1 µM values follow.
Please give a number only; it is taken to be in %.

Record excerpt, results attached:
COc1cccc(-c2ccc(C(=O)N(C)c3cccc(C)c3)cc2)c1 : 44
COc1cccc(N(C)C(=O)c2ccc(-c3ccc(F)c(F)c3)cc2)c1 [Compound 18a] : 31

query: State its inhibition at 1 µM: COc1cccc(C(=O)N(C)c2ccc(-c3cccc(OC)c3)cc2)c1 [Compound 24a]
result: 11

query: Kindly indicate its recorded inhibition at 1 µM. Item: COc1cccc(N(C)C(=O)c2ccc(-c3ccc4c(c3)OCO4)cc2)c1 [Compound 22a]
result: 51

query: Using known records, supply inhibition at 1 µM for COc1ccc(N(C)C(=O)c2ccc(-c3cccc(OC)c3)cc2)cc1 [Compound 11a]
result: 27

query: Kindly indicate its recorded inhibition at 1 µM. Item: COc1ccc(-c2ccc(C(=O)N(C)c3ccc(OC)cc3)cc2)cc1 [Compound 12a]
result: 19

query: Return the recorded inhibition at 1 µM value; entry: COc1cccc(N(C)C(=O)c2ccc(-c3ccccc3)cc2)c1
result: 51

query: Supply reported inhibition at 1 µM belonging to this molecule: CN(C(=O)c1ccc(-c2cccc(O)c2)cc1)c1cccc(O)c1
result: 36

query: // Input: COc1cccc(N(C)C(=O)c2ccc(-c3cccc(OC)c3F)cc2)c1 [Compound 19a] . Output its inhibition at 1 µM only.
result: 64

query: Recall and state the measured inhibition at 1 µM for COc1cccc(N(C)C(=O)c2ccc(-c3ccccc3OC)cc2)c1 .
result: 50

---

Item-by-item account of inhibition at 1 µM
- tested system: m17β-HSD2 (Mus musculus, UniProt P51658)
- Construct: The microsomal fraction (m17β-HSD2) was obtained from mouse liver as described for h17β-HSD2; tissue Pharmacelsus GmbH (mouse livers); host or cells: mouse liver, microsomal fraction
- Sequence (P51658 whole entry): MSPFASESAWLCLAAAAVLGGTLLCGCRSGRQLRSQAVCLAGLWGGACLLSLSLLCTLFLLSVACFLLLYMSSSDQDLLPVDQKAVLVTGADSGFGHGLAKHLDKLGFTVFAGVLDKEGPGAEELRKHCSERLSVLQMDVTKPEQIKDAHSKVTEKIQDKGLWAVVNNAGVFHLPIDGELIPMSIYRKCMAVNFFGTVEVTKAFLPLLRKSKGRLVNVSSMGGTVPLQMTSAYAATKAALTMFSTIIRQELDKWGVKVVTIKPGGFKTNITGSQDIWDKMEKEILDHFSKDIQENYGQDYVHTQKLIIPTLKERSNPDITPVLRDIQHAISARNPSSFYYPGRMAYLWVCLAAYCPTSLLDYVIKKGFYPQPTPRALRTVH
- assay remarks: Inhibition of m17β-HSD2 in cell-free assay
- Format: biochemical
- protocol conditions: read-out: % inh. at 1 μM m17β-HSD2
Hi! Could you send only the number? It should be in %, unit omitted.

Cc1cccc(N(C)C(=O)c2ccc(-c3cccc(C)c3F)cc2)c1 [Compound 21a] : 56
Cc1cccc(-c2ccc(C(=O)N(C)c3cccc(C)c3)cc2)c1 : 50
CN(C(=O)c1ccc(-c2cccc(O)c2)cc1)c1cccc(O)c1 : 42
COc1cccc(-c2ccc(C(=O)N(C)c3cccc(C)c3)cc2)c1 : 56
COc1cccc(N(C)C(=O)c2ccc(-c3cccc(N(C)C)c3)cc2)c1 [Compound 15a] : 67
COc1cccc(N(C)C(=O)c2ccc(-c3ccc4c(c3)OCO4)cc2)c1 [Compound 22a] : 56
COc1cccc(CN(C)C(=O)c2ccc(-c3cccc(C)c3F)cc2)c1 [Compound 25a] : 43
COc1ccc(-c2ccc(C(=O)N(C)c3cccc(OC)c3)cc2)cc1 [Compound 10a] : 66
COc1ccc(-c2ccc(C(=O)N(C)c3ccc(OC)cc3)cc2)cc1 [Compound 12a] : 62
COc1cccc(N(C)C(=O)c2ccc(-c3cccc(OC)c3F)cc2)c1 [Compound 19a] : 67

query: Name the recorded inhibition at 1 µM of the item COc1cccc(N(C)C(=O)c2ccc(-c3cccc(Cl)c3)cc2)c1 [Compound 14a] in your answer.
result: 73

query: Hello, please tell me recorded inhibition at 1 µM for this one: COc1cccc(N(C)C(=O)c2ccc(-c3ccccc3)cc2)c1
result: 48

query: Let me know recorded inhibition at 1 µM for Cc1cccc(N(C)C(=O)c2ccc(-c3ccc4c(c3)OCO4)cc2)c1 [Compound 23a] , thanks.
result: 70

query: Tell us which inhibition at 1 µM value is on record for COc1cccc(N(C)C(=O)c2ccc(-c3ccccc3OC)cc2)c1
result: 33

query: Give inhibition at 1 µM for COc1cccc(N(C)C(=O)c2ccc(-c3cccc(C)c3F)cc2)c1 [Compound 20a]
result: 48

query: Report measured inhibition at 1 µM; entry is COc1cccc(N(C)C(=O)c2ccc(-c3ccc(OC)c(OC)c3)cc2)c1 [Compound 16a]
result: 52

query: Assign inhibition at 1 µM to the following record: COc1ccc(N(C)C(=O)c2ccc(-c3cccc(OC)c3)cc2)cc1 [Compound 11a]
result: 58

query: Give reported inhibition at 1 µM value for COc1cccc(N(C)C(=O)c2ccc(-c3cccc(F)c3)cc2)c1 [Compound 13a]
result: 57
